B1: REST corepressor 3, residues 87 to 134; numbered along this chain, Q9P2K3 (parent)
chain: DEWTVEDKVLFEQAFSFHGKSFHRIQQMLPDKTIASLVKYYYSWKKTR

variants of: B1; experiment: abundance fitness (aPCA) (normalised: wild type 0, dead -1); higher = more abundant; growth selection in yeast, the domain comes from the species named; details: Homo sapiens
quantity: abundance fitness
# print the numeric value only

Use these answered entries as a reference point.
{"columns": ["mutation label", "quantity", "value reported"],
 "data": [
  ["Q13L", "abundance fitness", -0.679],
  ["K46F", "abundance fitness", -0.54],
  ["D31P", "abundance fitness", -0.621],
  ["S16K", "abundance fitness", -0.22],
  ["V5P", "abundance fitness", -0.393],
  ["Q13D", "abundance fitness", -0.644],
  ["V5T", "abundance fitness", -0.436],
  ["W44A", "abundance fitness", -0.78],
  ["S21L", "abundance fitness", -0.63],
  ["I34Q", "abundance fitness", -0.768]
]}

The variant listed as `F17D` has a reported abundance fitness of 0.259

Per the records, this variant ( `Y42E` ) has abundance fitness equal to 0.203

Quick note, abundance fitness for `M28A` landed at -0.382

The measured abundance fitness associated with `K39P` reads -0.86

Recorded abundance fitness (variant `A14T` ): -0.609

Recorded abundance fitness (variant `E2K` ): 0.3

The value of abundance fitness measured for the variant `M28P` turned out to be -0.733

Form: variant = `E2R` ; abundance fitness = -0.107
